These data points were gathered from PubChem BioAssay (NCI).

Provide the reported GI50 of each item.
tested on: OVCAR-5 ovarian; test: NCI tumour cell line growth inhibition, 48 h

The cases that follow already have their GI50 on record.
{"MOLECULE": "COc1cc2c3c(n(CCCN(C)CCO)c(=O)c2cc1OC)-c1cc2c(cc1C3=O)OCO2", "GI50": "51.7 µM"}
{"MOLECULE": "Cn1cc(S(=O)(=O)N2CCC3=Cc4c(cnn4-c4ccc(F)cc4)C[C@]3(C(=O)c3cc(C(F)(F)F)ccn3)C2)cn1", "GI50": "> 100 µM"}
{"MOLECULE": "O=C(Nc1ccc(Cl)cc1)Nc1nccs1", "GI50": "12.8 µM"}
{"MOLECULE": "O=C(CCN1CCOCC1)Nc1cccc(-n2cc(-c3ccncc3)c(-c3ccc(Cl)c(O)c3)n2)c1", "GI50": "4.07 µM"}
{"MOLECULE": "Cc1sc2c(c1C)C(c1ccc(Cl)cc1)=N[C@@H](CC(=O)Nc1ccc(OCCOCCOCCOCCNc3cccc4c3C(=O)N(C3CCC(=O)NC3=O)C4=O)cc1)c1nnc(C)n1-2 (some centres not stated)", "GI50": "< 0.0465 µM"}
{"MOLECULE": "C=C(C)[C@@H]1CC[C@]2(C)[C@H](CC[C@@H]3[C@@H]([C@@](C)(O)CCC=C(C)C)CC[C@]32C)[C@@]1(C)CCC(=O)O", "GI50": "17.6 µM"}
{"MOLECULE": "NC(N)=N/N=C(\\N=Nc1ccccc1)c1ccc(Cl)cc1", "GI50": "3.69 µM"}
{"MOLECULE": "O=C(N[C@@H](Cc1coc2ccccc12)B(O)O)[C@@H]1C[C@H]2CC[C@@H]1O2", "GI50": "6.8 µM"}

Would you mind listing GI50 for each of the following molecules?
1. Oc1ccc(N=Nc2nccs2)c(O)c1
2. N#CC(C#N)=C1CCCOc2c1ccc1ccccc21
3. O=C1c2ccccc2C(=O)c2c(NCCN=Cc3ccccc3O)cccc21

OUTPUT:
1. 7.84 µM
2. > 100 µM
3. 14.2 µM

Input COc1ccc(-c2noc(N)c2-c2cc(OC)c3c(c2)OCO3)cc1 . Output GI50: 5.63 µM
